Record form. Attribute: TGI. Fill in for each entry.
- Test system: EKVX NSCLC
- run.description: NCI tumour cell line growth inhibition, 48 h

// worked examples, TGI included
1. COC(=O)C1=C(C(=O)OC)c2cc(OC)ccc2C(C(=S)N(C)C)S1 (stereo not given); > 100 µM
2. COc1ccc(N2C(=O)C3ON(C(C(N)=O)c4ccccc4)C(c4cc5ccccc5c5ccccc45)C3C2=O)cc1 (stereo not given); > 50 µM
3. COc1ccc(N2C(=O)c3cc(C)cnc3S2(=O)=O)cc1; > 100 µM
4. COc1cccc(/C=C2\C(=O)N(C(=O)c3ccc(NC(C)=O)cc3)N=C2C)c1; > 100 µM

Value (TGI, EKVX NSCLC) for record CC(C)N1CN(C(C(=O)N[C@@H]2C(=O)N3C2SC(C)(C)C3C(=O)O)c2ccccc2)CSC1=S (stereo not given in full) = > 100 µM
